Just for reference, ChEMBL document CHEMBL3112402 is where these values come from.

test: Antiinflammatory activity in PMA-activated human U937 cells assessed as inhibition of LPS-induced TNF-alpha expression preincubated for 2 hrs followed by LPS challenge measured after 6 hrs by ELISA; assay type: functional, cell-based; conditions: U-937
The compounds listed here are annotated with their IC50.
Field: numeric (µM). Do not append units.

// worked examples, IC50 included
[[record]]
smilesrepr = "CC(C)C=C1C(=O)C=CC1=O"
measurementname = "IC50"
reportedvalue = 5.1

[[record]]
smilesrepr = "C/C=C1\\C(=O)C=C(C(C)C)C1=O"
measurementname = "IC50"
reportedvalue = 23.7

[[record]]
smilesrepr = "CC1=CC(=O)C(C(C)C)=CC1=O"
measurementname = "IC50"
reportedvalue = 102


# ---- query compound ----
Entry CC1=CC(=O)/C(=C\C(C)C)C1=O , IC50 reported as 10.1

====

target: Transcription factor Jun (Homo sapiens); assay: Inhibition of transcription factor AP-1 binding to oligonucleotide containing TPA-responsive element in TPA-activated human HeLa cells after 1 hr by ELISA
Sequence (P05412 whole entry): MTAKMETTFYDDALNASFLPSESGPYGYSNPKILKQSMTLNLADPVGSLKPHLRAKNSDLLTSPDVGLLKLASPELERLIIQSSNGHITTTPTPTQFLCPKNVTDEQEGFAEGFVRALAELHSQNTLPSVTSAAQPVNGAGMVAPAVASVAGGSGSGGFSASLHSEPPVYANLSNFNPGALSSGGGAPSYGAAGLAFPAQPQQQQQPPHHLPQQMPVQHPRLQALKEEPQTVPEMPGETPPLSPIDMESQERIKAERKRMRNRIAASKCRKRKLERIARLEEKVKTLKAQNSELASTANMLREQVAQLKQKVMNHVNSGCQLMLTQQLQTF
measurementName: pIC50
In plain terms, pIC50 is the concentration in mol/L turned into minus its base-10 logarithm.

// worked examples, pIC50 included
[[record]]
compound = "O=C(O[C@H](Cc1ccc(O)c(O)c1)C(=O)O)C1=Cc2ccc(O)c(O)c2C(C(=O)O[C@H](Cc2ccc(O)c(O)c2)C(=O)O)C1c1ccc(O)c(O)c1 (some centres undefined)"
reportedvalue = 5.80

[[record]]
compound = "O=C(O[C@H](Cc1ccc(O)c(O)c1)C(=O)O)[C@H]1[C@H](C(=O)O[C@H](Cc2ccc(O)c(O)c2)C(=O)O)[C@H](c2ccc(O)c(O)c2)[C@H]1c1ccc(O)c(O)c1"
reportedvalue = 5.89

[[record]]
compound = "O=C(/C=C/c1ccc(O)c(O)c1)O[C@H](Cc1ccc(O)c(O)c1)C(=O)O"
reportedvalue = 4.79


# ---- query compound ----
Entry O=C(O)/C(=C\c1ccc(O)c(O)c1)C(c1ccc(O)c(O)c1)C(O)C(=O)O (centres undefined) , Transcription factor Jun (Homo sapiens) data, pIC50 value: 4.92
